# protocolText: Visual observation of test solutions for deposition of crystals or white turbidity
# Format: physicochemical
# Set-up: key: +: turbidity found; −: no turbidity
# condition: after storage at 4° C. for 3 months; agent added 12 mM

{"compound": "OCC1OC(OC2C(CO)OC(OCC3OC4OC5C(CO)OC(OC6C(CO)OC(OC7C(CO)OC(OC8C(CO)OC(OC9C(CO)OC(OC3C(O)C4O)C(O)C9O)C(O)C8O)C(O)C7O)C(O)C6O)C(O)C5O)C(O)C2O)C(O)C(O)C1O (stereo not shown)", "turbidity (visual observation)": "−"}

----------
# testedTarget: Inactive α-amylase (from swine pancreas) (Sus scrofa, UniProt P00690)
# Construct: α-amylase derived from the swine pancreas; from tissue; host or cells: swine pancreas
# Sequence (P00690 16-511): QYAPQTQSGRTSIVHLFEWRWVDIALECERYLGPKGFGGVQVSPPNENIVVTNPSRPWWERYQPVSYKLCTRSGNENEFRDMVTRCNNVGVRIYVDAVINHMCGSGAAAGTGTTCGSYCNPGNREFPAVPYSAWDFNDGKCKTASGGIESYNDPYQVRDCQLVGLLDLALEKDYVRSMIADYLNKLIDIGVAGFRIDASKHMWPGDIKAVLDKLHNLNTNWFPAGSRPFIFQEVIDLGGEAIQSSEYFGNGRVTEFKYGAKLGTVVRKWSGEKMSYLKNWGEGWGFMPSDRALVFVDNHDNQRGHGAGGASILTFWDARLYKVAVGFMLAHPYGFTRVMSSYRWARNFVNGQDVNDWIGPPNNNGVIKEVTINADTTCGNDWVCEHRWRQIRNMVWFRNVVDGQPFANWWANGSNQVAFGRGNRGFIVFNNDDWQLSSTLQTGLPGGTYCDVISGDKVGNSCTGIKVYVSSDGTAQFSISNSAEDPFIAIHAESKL
# protocolText: Relative sensitivity in determination of calcium with 10 mg/dl calcium standard solution
# Format: biochemical
# condition: just after the preparation; 10 mg/dl calcium standard; agent 6 mM
In this section we review reported Relative sensitivity (%) when sensitivity in case of no addition is taken as 100% values for a set of compounds.
measurementLabel: Relative sensitivity (%) when sensitivity in case of no addition is taken as 100%

{"compound": "OCC1OC(OC2C(CO)OC(OCC3OC4OC5C(CO)OC(OC6C(CO)OC(OC7C(CO)OC(OC8C(CO)OC(OC9C(CO)OC(OC3C(O)C4O)C(O)C9O)C(O)C8O)C(O)C7O)C(O)C6O)C(O)C5O)C(O)C2O)C(O)C(O)C1O (stereo not drawn) [G2αCD, maltosyl-α-cyclodextrin]", "resultUnit": "%", "endpointResult": 119.4}
{"compound": "OCC1OC(OCC2OC3OC4C(CO)OC(OC5C(CO)OC(OC6C(CO)OC(OC7C(CO)OC(OC8C(CO)OC(OC2C(O)C3O)C(O)C8O)C(O)C7O)C(O)C6O)C(O)C5O)C(O)C4O)C(O)C(O)C1O (stereo not drawn) [G1αCD, glucosyl-α-cyclodextrin]", "resultUnit": "%", "endpointResult": 122.3}
{"compound": "OCC1OC(OCC2OC3OC4C(CO)OC(OC5C(CO)OC(OC6C(CO)OC(OC7C(CO)OC(OC8C(CO)OC(OC9C(CO)OC(OC2C(O)C3O)C(O)C9O)C(O)C8O)C(O)C7O)C(O)C6O)C(O)C5O)C(O)C4O)C(O)C(O)C1O (stereo not drawn) [G1βCD, glucosyl-β-cyclodextrin]", "resultUnit": "%", "endpointResult": 133.2}
{"compound": "OCC1OC(OC2C(CO)OC(OCC3OC4OC5C(CO)OC(OC6C(CO)OC(OC7C(CO)OC(OC8C(CO)OC(OC9C(CO)OC(OC%10C(CO)OC(OC3C(O)C4O)C(O)C%10O)C(O)C9O)C(O)C8O)C(O)C7O)C(O)C6O)C(O)C5O)C(O)C2O)C(O)C(O)C1O (stereo not drawn) [G2βCD, maltosyl-β-cyclodextrin]", "resultUnit": "%", "endpointResult": 120.2}
